For each of the binders below, state its log10 of kon.
Molecular target: T1, recombinant gp120 of HIV-1 strain IIIb (HIV-1 strain IIIb, UniProt P04578 33-511)
T1 construct: domain: gp120; also called IIIb-derived gp120; gp 120 (IIIB strain)
Test: SPR BIAcore, gp120 on chip
Would you kindly interpret these values as log10 of kon expressed in M⁻¹ s⁻¹?

Briefly, log10 of kon measured for composite Fab H101/4L-1 (Fab, V domains shown) VH: LEQSGAEVKKPGASVKVSCQASGYRFSHFTVHWVRQAPGQRFEWHGWINPYNGNKEFSAKFQDRVTFTADTSANTAYMELRSLRSADTAVYYCARVGEWGWHQRRYDNYYMDVWGKGTTVIVSS VL: ELTQSPGTLSLSPGERATFSCRSSHSIRSRRVAWYQHKPGQAPRLVIHGVSNRASGISDRFSGSGSGTDFTLTITRVEPEDFALYYCQVYGASSYTFGQGTKLERKR : 5.95

Briefly, log10 of kon measured for composite Fab H31/4L-14 (Fab, V domains shown) VH: LEQSGAEVKKPGASVKVSCQASGYRFSHFTVHWVRQAPGQRFEWHGWINPYNGNKEFSAKFQDRVTFTADTSANTAYMELRSLRSADTAVYYCARVGEWGWEMFRYDNYYMDVWGKGTTVIVSS VL: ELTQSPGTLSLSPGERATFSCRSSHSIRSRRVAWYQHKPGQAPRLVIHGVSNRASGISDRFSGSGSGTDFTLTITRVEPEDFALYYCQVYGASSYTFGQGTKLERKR : 5.18

Briefly, log10 of kon measured for composite Fab H31/L42-1 (Fab, V domains shown, also called Fab of plasmid pPho-H31/L42-1 (ATCC 69691)) VH: LEQSGAEVKKPGASVKVSCQASGYRFSHFTVHWVRQAPGQRFEWHGWINPYNGNKEFSAKFQDRVTFTADTSANTAYMELRSLRSADTAVYYCARVGEWGWEMFRYDNYYMDVWGKGTTVIVSS VL: ELTQSPGTLSLSPGERATFSCRSSHQLDGSRVAWYQHKPGQAPRLVIHGVSNRASGISDRFSGSGSGTDFTLTITRVEPEDFALYYCQQYGWPFYTFGQGTKLERKR : 4.83

Briefly, log10 of kon measured for composite Fab H33/L42-17 (Fab, V domains shown) VH: LEQSGAEVKKPGASVKVSCQASGYRFSHFTLHWVRQAPGQRFEWHGWINPYNGNKEFSAKFQDRVTFTADTSANTAYMELRSLRSADTAVYYCARVGEWGWEMFRYDNYYMDVWGKGTTVIVSS VL: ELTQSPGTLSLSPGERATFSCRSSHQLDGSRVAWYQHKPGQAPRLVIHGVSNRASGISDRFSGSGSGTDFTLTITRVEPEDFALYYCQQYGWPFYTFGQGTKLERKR : 4.99

Briefly, log10 of kon measured for composite Fab H103/L42-4 (Fab, V domains shown) VH: LEQSGAEVKKPGASVKVSCQASGYRFSHFTLHWVRQAPGQRFEWHGWINPYNGNKEFSAKFQDRVTFTADTSANTAYMELRSLRSADTAVYYCARVGEWGWHQRRYDNYYMDVWGKGTTVIVSS VL: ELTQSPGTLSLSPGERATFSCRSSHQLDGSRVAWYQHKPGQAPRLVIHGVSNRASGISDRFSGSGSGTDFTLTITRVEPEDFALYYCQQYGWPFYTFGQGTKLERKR : 4.91

Briefly, log10 of kon measured for composite Fab H33/LH-11 (Fab, V domains shown) VH: LEQSGAEVKKPGASVKVSCQASGYRFSHFTLHWVRQAPGQRFEWHGWINPYNGNKEFSAKFQDRVTFTADTSANTAYMELRSLRSADTAVYYCARVGEWGWEMFRYDNYYMDVWGKGTTVIVSS VL: ELTQSPGTLSLSPGERATFSCRSSHQLDGSRVAWYQHKPGQAPRLVIHGVSNRASGISDRFSGSGSGTDFTLTITRVEPEDFALYYCQTYGRGHYTFGQGTKLERKR : 4.86
